test system: C. albicans Gu4; assay: microbe, parasite or virus in culture; assay type: cell-based; details: Candida albicans, GU4, 48 h

{"Compound": "O=P(CN1CCN(c2ccc(OC[C@H]3CO[C@](Cn4ccnc4)(c4ccc(Cl)cc4Cl)O3)cc2)CC1)(c1ccccc1)c1ccccc1 (racemic)", "Experimental Target": "C. albicans Gu4", "MIC50": "12.5 µM"}
{"Compound": "OC(Cn1cncn1)(Cn1cncn1)c1ccc(F)cc1F [Flc, fluconazole, reference compound]", "Experimental Target": "C. albicans Gu4", "MIC50": "6.25 µM"}
{"Compound": "Clc1ccc([C@@]2(Cn3ccnc3)OC[C@H](COc3ccc(N4CCN(CP(c5ccccc5)c5ccccc5)CC4)cc3)O2)c(Cl)c1 (racemic)", "Experimental Target": "C. albicans Gu4", "MIC50": "3.13 µM"}
{"Compound": "S=P(CN1CCN(c2ccc(OC[C@H]3CO[C@](Cn4ccnc4)(c4ccc(Cl)cc4Cl)O3)cc2)CC1)(c1ccccc1)c1ccccc1 [KeSP, Ph2P(S)CH2-Ke]", "Experimental Target": "C. albicans Gu4", "MIC50": "50 µM"}
{"Compound": "CC(=O)N1CCN(c2ccc(OCC3COC(Cn4ccnc4)(c4ccc(Cl)cc4Cl)O3)cc2)CC1 (stereo not drawn) [Ke, ketoconazole, reference compound]", "Experimental Target": "C. albicans Gu4", "MIC50": "25 µM"}
{"Compound": "Clc1ccc([C@@]2(Cn3ccnc3)OC[C@H](COc3ccc(N4CCN(CP(=[Se])(c5ccccc5)c5ccccc5)CC4)cc3)O2)c(Cl)c1 [KeSeP, Ph2P(Se)CH2-Ke]", "Experimental Target": "C. albicans Gu4", "MIC50": "12.5 µM"}

---

system: C. albicans Gu5; experiment: microbe, parasite or virus in culture; format: cell-based, Candida albicans; details: Candida albicans, GU5, 48 h

{"Compound": "OC(Cn1cncn1)(Cn1cncn1)c1ccc(F)cc1F [Flc, fluconazole, reference compound]", "Experimental Target": "C. albicans Gu5", "Limit Sign": ">", "MIC50 [µM]": 200}
{"Compound": "O=P(CN1CCN(c2ccc(OC[C@H]3CO[C@](Cn4ccnc4)(c4ccc(Cl)cc4Cl)O3)cc2)CC1)(c1ccccc1)c1ccccc1 (racemic) [KeOP, Ph2P(O)CH2-Ke]", "Experimental Target": "C. albicans Gu5", "Limit Sign": "=", "MIC50 [µM]": 25}
{"Compound": "Clc1ccc([C@@]2(Cn3ccnc3)OC[C@H](COc3ccc(N4CCN(CP(c5ccccc5)c5ccccc5)CC4)cc3)O2)c(Cl)c1 (racemic) [KeP, Ph2PCH2-Ke]", "Experimental Target": "C. albicans Gu5", "Limit Sign": "=", "MIC50 [µM]": 50}

---

Assay: Cytotoxicity IC50, TOX-8 resazurin assay, hASCs, 24 h
Format: cell-based, human
Details: female, human, IC50 (cytotoxicity, hASCs viability)
Procedure: Human Adipose Tissue-derived Stem Cells (hASCs) were isolated from subcutaneous adipose tissue fragments harvested from non-diabetic female donors (age range 33–38, n = 2) during standard surgical procedure of total hip arthroplasty. […] The IC50 values were determined using in vitro Toxicology TOX-8 Assay Kit (resazurin based) according to the manufacturer’s protocol. […] Reduction of the dye was measured spectrophotometrically at 600 nm and 690 nm reference wavelength (Epoch, Biotek). […]

{"Compound": "Clc1ccc([C@@]2(Cn3ccnc3)OC[C@H](COc3ccc(N4CCN(CP(c5ccccc5)c5ccccc5)CC4)cc3)O2)c(Cl)c1 (racemic) [KeP, Ph2PCH2-Ke]", "IC50 at 24 h [µM]": 37.6}

Source listed as paper PMC6838151.
